- test_target: GPR73 (prokineticin 1 receptor) (Homo sapiens)
- Sequence (Q8TCW9 whole entry, species assumed): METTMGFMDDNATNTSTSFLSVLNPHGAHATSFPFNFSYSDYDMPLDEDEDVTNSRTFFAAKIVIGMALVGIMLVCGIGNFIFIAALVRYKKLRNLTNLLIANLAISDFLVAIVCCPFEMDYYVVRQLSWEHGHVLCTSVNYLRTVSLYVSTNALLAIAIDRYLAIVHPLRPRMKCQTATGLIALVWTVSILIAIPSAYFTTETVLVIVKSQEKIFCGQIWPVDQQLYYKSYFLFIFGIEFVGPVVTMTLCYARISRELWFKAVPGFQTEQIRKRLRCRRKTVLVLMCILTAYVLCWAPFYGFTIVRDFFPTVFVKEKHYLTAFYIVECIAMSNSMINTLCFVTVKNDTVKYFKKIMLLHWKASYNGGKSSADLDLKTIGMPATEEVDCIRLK
- measurement_protocol: PK1 functional assay: Ca2+ mobilization screening for PK1 antagonists on the FLIPR
- condition_description: HEK 293 GPR73 cells; PK1 ligand preparation at its EC50; multiple values = multiple testing; read-out: Ca^2+ Mobilization IC50
reported_metric: IC50 (nM)

> print(dat)
                                     smiles  reported.metric  unit.text  observed.measurement
1  COc1ccc(Cn2c(NCc3cnc(C)cc3C)nc(=O)n(Cc3cccc(F)c3)c2=O)cc1             IC50         nM                  2550
2  COCCCCCn1c(NCc2cccnc2N)nc(=O)n(Cc2ccc(Cl)cc2)c1=O             IC50         nM                   118
3  COc1ccc(Cn2c(NCc3cccc(N)n3)cc(=O)n(Cc3ccc(OC)cc3)c2=O)cc1             IC50         nM                   503
4  COCCCCCn1c(NCc2c(C)cc(C)nc2N)nc(=O)n(Cc2ccccc2)c1=O             IC50         nM                    98
